Where do the numbers come from? From PubChem BioAssay (Tox21).

PROTOCOL_DETAILS: qHTS assay for small molecule agonists of the antioxidant response element (ARE) signaling pathway - cell viability counter screen (AID 743203); further: nearly all actives have a fitted effect of over 55% in size
CONDITION_DESCRIPTION: ARE-bla HepG2 viability, CellTiter-Glo luminescence, 16 h; series mostly up to 73.3 µM
Records with an inconclusive call do not appear. Calls of active or inactive are those of the source. The call rests on the fitted dose curve.
Field 'call' accepts y = active, n = inactive

Examples from the recorded data:
Test call for this compound, please: `C#Cc1cccc(Nc2ncnc3cc(OCCOC)c(OCCOC)cc23)c1` n

Test call for this compound, please: `O=S(=O)(Oc1ccc(Cl)cc1)c1ccccc1` n

Test call for this compound, please: `CCN(CC)CCNc1ccc(CNC=O)c2sc3ccc(OC)cc3c(=O)c12` y

Test call for this compound, please: COc1cc2nc(N3CCN(C(=O)C4COc5ccccc5O4)CC3)nc(N)c2cc1OC (stereo not drawn) y

Further cases:
Test call for this compound, please: `ClCCOCCOCCCl` n

====

EXPERIMENTAL_TARGET: Estrogen receptor (Homo sapiens)
PROTOCOL_DETAILS: qHTS assay to identify small molecule antagonists of the estrogen receptor alpha (ER-alpha) signaling pathway (AID 743069); further: potency means the concentration at half of the fitted maximal effect
CONDITION_DESCRIPTION: HEK293 ER-alpha-UAS-bla, beta-lactamase ratio, antagonist mode; series mostly up to 69.4 µM
The source made the active and inactive calls. Calls come from the whole dose curve; as a rule, active = well fitted curve in the direction sought with a large enough effect in the signal ratio in the repeat runs (not every such curve was filed as active); inconclusive = weak or mixed curves, or effect the other way; inactive = no such curve, though single readings can be large or run the other way; the % refers to the signal ratio.
EXPERIMENTAL_ENDPOINT: Potency

Sample answers from the record:
The measured Potency associated with C[C@@H](c1ncncc1F)C(O)(Cn1cncn1)c1ccc(F)cc1F (stereo partly specified) reads inactive

The measured Potency associated with `CN(Cc1ccc(C(C)(C)C)cc1)Cc1cccc2ccccc12` reads inactive

The measured Potency associated with `O=[N+]([O-])c1ccc2[nH]ncc2c1` reads inactive

The measured Potency associated with `OC[C@H]1O[C@@H](OCCc2ccc(O)cc2)[C@H](O)[C@@H](O)[C@@H]1O` reads inactive

The measured Potency associated with COc1cc2nc(N(C)CCCNC(=O)C3CCCO3)nc(N)c2cc1OC (stereo unspecified) reads inactive

The measured Potency associated with `c1ccc(C(O[C@H]2CCCN(CCc3ccc4c(c3)OCO4)C2)c2ccccc2)cc1` reads inactive

The measured Potency associated with COCC(C)OC(C)=O (stereo unspecified) reads inactive

The measured Potency associated with `CCCCNc1ccc(C(=O)OCCOCCOCCOCCOCCOCCOCCOCCOCCOC)cc1` reads inactive

The measured Potency associated with `Nc1cccc(S(=O)(=O)c2cccc(N)c2)c1` reads inactive

The measured Potency associated with `Cc1c(N)cccc1[N+](=O)[O-]` reads inactive

Now for a further compound.
The measured Potency associated with `CC(=O)OC[C@H]1O[C@@H](n2ncc(=O)[nH]c2=O)[C@H](OC(C)=O)[C@@H]1OC(C)=O` reads 2680 nM [inconclusive] (active)

====

PROTOCOL_DETAILS: qHTS assay for small molecule activators of the heat shock response signaling pathway - cell viability counter screen (AID 743209); further: on the % scale 0 is the no-effect control and ±100 the full control effect; nearly all actives have a fitted effect of over 50% in size
CONDITION_DESCRIPTION: HSE-bla HeLa viability, CellTiter-Glo luminescence, 5 h; series mostly up to 62.6 µM
Records with an inconclusive call do not appear. The source made the active and inactive calls. Calls follow the shape of the dose curve; as a rule, active = well fitted cell-killing curve with a large enough effect in the repeat runs; inconclusive = weak or mixed curves, or effect the other way; inactive = no such curve, though single readings can be large or run the other way.
EXPERIMENTAL_ENDPOINT: activity change, negative = cytotoxicity

The measured activity change, negative = cytotoxicity associated with `CC/C=C\CCOC(=O)CC` reads inactive

The measured activity change, negative = cytotoxicity associated with `CC(=O)[O][Al]` reads inactive

The measured activity change, negative = cytotoxicity associated with `OCCNCc1ccccc1` reads inactive

The measured activity change, negative = cytotoxicity associated with Cc1ccc(C(C)OC(=O)C2(C)CCC(C(=O)O)C2(C)C)cc1 (stereo not given) reads inactive

The measured activity change, negative = cytotoxicity associated with COc1cc2c(cc1OC)C(C(C(=O)N(CCc1ccc(OC)c(OC)c1OC)CCc1ccc(OC)c(OC)c1OC)c1ccccc1)=NCC2 (stereo not given) reads inactive

The measured activity change, negative = cytotoxicity associated with `Brc1c2ccccc2c(Br)c2ccccc12` reads 2.9% [at 5.95 µM] (inactive)

Further cases:
The measured activity change, negative = cytotoxicity associated with `Nc1cccc(S(=O)(=O)c2cccc(N)c2)c1` reads inactive

The measured activity change, negative = cytotoxicity associated with CC1CCC(=O)C1=O (stereo not given) reads inactive

The measured activity change, negative = cytotoxicity associated with `C[C@@H]1C[C@H]2O[C@@]3(O[C@@H]2C(C)(C)O)[C@H](O)[C@@]2(C)[C@@H]4CC[C@H]5C(C)(C)[C@@H](O[C@@H]6OC[C@@H](O)[C@H](O)[C@H]6O)CC[C@@]56C[C@@]46CC[C@]2(C)[C@@H]13` reads inactive

The measured activity change, negative = cytotoxicity associated with COc1cc2nc(N(C)CCCNC(=O)C3CCCO3)nc(N)c2cc1OC (stereo not given) reads inactive

The measured activity change, negative = cytotoxicity associated with `CCC(C)(C)CC` reads inactive

The measured activity change, negative = cytotoxicity associated with `C#CCN(C)CCCOc1ccc(Cl)cc1Cl` reads inactive

The measured activity change, negative = cytotoxicity associated with `CN(C)CCN(Cc1ccsc1)c1ccccn1` reads inactive

The measured activity change, negative = cytotoxicity associated with CC1OC(=O)C(C)OC1=O (stereo not given) reads inactive

The measured activity change, negative = cytotoxicity associated with COc1cc2nc(N3CCN(C(=O)C4COc5ccccc5O4)CC3)nc(N)c2cc1OC (stereo not given) reads inactive

The measured activity change, negative = cytotoxicity associated with O=C(NCC1CN(c2ccc(N3CCOCC3=O)cc2)C(=O)O1)c1ccc(Cl)s1 (stereo not given) reads inactive

The measured activity change, negative = cytotoxicity associated with `C[C@H]1C[C@H]2[C@@H]3CCC4=CC(=O)C=C[C@]4(C)[C@@]3(Cl)[C@@H](O)C[C@]2(C)[C@@]1(O)C(=O)CO` reads inactive

The measured activity change, negative = cytotoxicity associated with CC(C)OC(=O)C(C)N(C(=O)c1ccccc1)c1ccc(F)c(Cl)c1 (stereo not given) reads inactive

The measured activity change, negative = cytotoxicity associated with `CN(C)c1ccc(CCO)cc1` reads inactive

The measured activity change, negative = cytotoxicity associated with `CCCCCCCCCCCC(=O)OC[C@@H](O)[C@H]1OC[C@H](OCCO)[C@H]1OCCO` reads inactive

The measured activity change, negative = cytotoxicity associated with `CN(C)c1ccc(/C=C/c2ccc([N+](=O)[O-])cc2)cc1` reads -1.13% [at 5.95 µM] (inactive)

The measured activity change, negative = cytotoxicity associated with `COc1cc(Cl)ccc1Oc1ccc(Cl)cc1Cl` reads inactive
